Measured values drawn from the supplement of paper PMC10724198 for this set.

Reported protein stability index by item:
Test system: Saccharomyces cerevisiae;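 further: PSI is a weighted mean of sequencing reads over stability bins, variants kept only with over 10 reads, mCherry proximal and sfGFP distal, peptide attached via GGGS linker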
Assay overview: protein stability index of tFT-peptide fusion (C-terminal peptide) (PSI (0-1 scale)); higher = more stable (slower turnover)
Assay conditions: genetic background: doa10 deletion; temperature: 30 C
When you answer, write just the number.

Consider the following illustrative entries.
| Sequence input | protein stability index |
| --- | --- |
| RVGYSIIIIGIE | 0.244 |
| VLVVLVVCRRAE | 0.18 |
| SRPEPNGLRKLV | 0.139 |
| GCGWVFWVVDWG | 0.369 |
| PSLAASFWRVVG | 0.102 |
| LVCLVFVRSSLV | 0.205 |

Quick check: protein stability index of SVFVFFGFIDFL ?
0.369

Quick check: protein stability index of PATPPLRFPPSA ?
0.67

Quick check: protein stability index of AGALAVALPCIC ?
0.316

Quick check: protein stability index of LYTFCSMDANPM ?
0.488

Quick check: protein stability index of VVGLVSIVQVIM ?
0.279

Quick check: protein stability index of LFVFVISSSSFP ?
0.291

Quick check: protein stability index of MSQVRYQRATRA ?
0.526

Quick check: protein stability index of LCGYVGVVVCLV ?
0.175

Quick check: protein stability index of IYPPVSVTNLLV ?
0.227
